Please provide measured damage to plant, LOLPE for the entries that follow.
Tested on: plants
procedure-text: Test D pre-emergence, other plants of Tables D1 and D3
Format: in vivo
condition-label: pre-emergence, rate 130, 20 DAA, 100=total damage, 0=no damage
# answer = number (no unit)

Entry under review: CCn1nc([C@H]2CN(C)C(=O)[C@@H]2C(=O)Nc2cccc(F)c2F)c2cc(F)ccc21 . Reported damage to plant, LOLPE?
0

Entry CN1CC(c2cc(C(F)(F)F)n(C)n2)C(C(=O)Nc2ccccc2F)C1=O (racemic) : reported damage to plant, LOLPE = ?
0

Need damage to plant, LOLPE of CN1CC(c2cc(C(F)(F)F)n(C)n2)C(C(=O)Nc2ccc(F)c(F)c2F)C1=O (racemic) , thanks.
40

Please report the recorded damage to plant, LOLPE for CN1CC(c2cc(C(F)(F)F)n(C)n2)C(C(=O)Nc2ccc(F)cc2F)C1=O (racemic) .
0

* * *

Test system: plants
procedure-text: Test D pre-emergence, other plants of Tables D1 and D3
Assay type: in vivo
condition-label: PANMI; preemergent; rate 30; 20 DAA
Kindly state damage to plant (100=total damage to plant; 0=no damage to plant), PANMI for each of the entries shown.
API note: the answer field is a bare number with no unit suffix.

Need damage to plant (100=total damage to plant; 0=no damage to plant), PANMI of CN1C[C@H](c2nn(C)c3c(F)cccc23)[C@@H](C(=O)Nc2cccc(F)c2F)C1=O , thanks.
0

// damage to plant (100=total damage to plant; 0=no damage to plant), PANMI lookup, key: CCn1nc([C@H]2CN(C)C(=O)[C@@H]2C(=O)Nc2cccc(F)c2F)c2c(F)cccc21
0

Sample CN1CC(c2cc(C(F)(F)F)n(C)n2)C(C(=O)Nc2cccc(F)c2F)C1=O (racemic) — what was its damage to plant (100=total damage to plant; 0=no damage to plant), PANMI?
0

Any idea what damage to plant (100=total damage to plant; 0=no damage to plant), PANMI was measured for CN1CC(c2cc(C(F)(F)F)n(C)n2)C(C(=O)Nc2ccc(F)cc2F)C1=O (racemic) ?
0

* * *

System: plants
procedure-text: Test D post-emergence, other plants of Tables D2 and D4
Type: in vivo
condition-label: ALOMY; "Cereals" Postemergent; Rates 130; evaluated after 15 d
Procedure: A formulation containing 50 g/L of the test chemical was prepared by dissolving the active ingredient in a mixture of organic solvents and emulsifier, details of which are provided in the table. This formulation was then mixed with a small, variable amount of acetone to aid dissolution, before addition of a 0.2% v/v aqueous solution of an adjuvant, as the aqueous diluent, to form an aqueous spray solution which contains a predetermined concentration of the active ingredient. […]
metric: ALOMY damage rating (100=total damage to plant; 0=no damage to plant)
Simply state the number, no unit and no words.

Look up ALOMY damage rating (100=total damage to plant; 0=no damage to plant) for this compound: CN1CC(c2cc(C(F)(F)F)n(C)n2)C(C(=O)Nc2cccc(F)n2)C1=O (racemic) [Compound 24]
0

I am curious: what ALOMY damage rating (100=total damage to plant; 0=no damage to plant) value has been reported for CN1CC(c2cc(C(F)(F)F)n(C)n2)C(C(=O)Nc2ccc(F)c(F)c2F)C1=O (racemic) [Compound 17] ?
30

So what's the measured ALOMY damage rating (100=total damage to plant; 0=no damage to plant) for this one? CN1CC(c2cc(C(F)(F)F)n(C)n2)C(C(=O)Nc2cccc(F)c2F)C1=O (racemic) [Compound 3]
0

What does the data say about its ALOMY damage rating (100=total damage to plant; 0=no damage to plant)? Entry: CN1CC(c2cc(C(F)(F)F)n(C)n2)C(C(=O)Nc2ccc(F)cc2F)C1=O (racemic) [Compound 6]
0
